SYSTEM_NAME: NPC1-like intracellular cholesterol transporter 1 (Homo sapiens)
Sequence (Q9UHC9 whole entry): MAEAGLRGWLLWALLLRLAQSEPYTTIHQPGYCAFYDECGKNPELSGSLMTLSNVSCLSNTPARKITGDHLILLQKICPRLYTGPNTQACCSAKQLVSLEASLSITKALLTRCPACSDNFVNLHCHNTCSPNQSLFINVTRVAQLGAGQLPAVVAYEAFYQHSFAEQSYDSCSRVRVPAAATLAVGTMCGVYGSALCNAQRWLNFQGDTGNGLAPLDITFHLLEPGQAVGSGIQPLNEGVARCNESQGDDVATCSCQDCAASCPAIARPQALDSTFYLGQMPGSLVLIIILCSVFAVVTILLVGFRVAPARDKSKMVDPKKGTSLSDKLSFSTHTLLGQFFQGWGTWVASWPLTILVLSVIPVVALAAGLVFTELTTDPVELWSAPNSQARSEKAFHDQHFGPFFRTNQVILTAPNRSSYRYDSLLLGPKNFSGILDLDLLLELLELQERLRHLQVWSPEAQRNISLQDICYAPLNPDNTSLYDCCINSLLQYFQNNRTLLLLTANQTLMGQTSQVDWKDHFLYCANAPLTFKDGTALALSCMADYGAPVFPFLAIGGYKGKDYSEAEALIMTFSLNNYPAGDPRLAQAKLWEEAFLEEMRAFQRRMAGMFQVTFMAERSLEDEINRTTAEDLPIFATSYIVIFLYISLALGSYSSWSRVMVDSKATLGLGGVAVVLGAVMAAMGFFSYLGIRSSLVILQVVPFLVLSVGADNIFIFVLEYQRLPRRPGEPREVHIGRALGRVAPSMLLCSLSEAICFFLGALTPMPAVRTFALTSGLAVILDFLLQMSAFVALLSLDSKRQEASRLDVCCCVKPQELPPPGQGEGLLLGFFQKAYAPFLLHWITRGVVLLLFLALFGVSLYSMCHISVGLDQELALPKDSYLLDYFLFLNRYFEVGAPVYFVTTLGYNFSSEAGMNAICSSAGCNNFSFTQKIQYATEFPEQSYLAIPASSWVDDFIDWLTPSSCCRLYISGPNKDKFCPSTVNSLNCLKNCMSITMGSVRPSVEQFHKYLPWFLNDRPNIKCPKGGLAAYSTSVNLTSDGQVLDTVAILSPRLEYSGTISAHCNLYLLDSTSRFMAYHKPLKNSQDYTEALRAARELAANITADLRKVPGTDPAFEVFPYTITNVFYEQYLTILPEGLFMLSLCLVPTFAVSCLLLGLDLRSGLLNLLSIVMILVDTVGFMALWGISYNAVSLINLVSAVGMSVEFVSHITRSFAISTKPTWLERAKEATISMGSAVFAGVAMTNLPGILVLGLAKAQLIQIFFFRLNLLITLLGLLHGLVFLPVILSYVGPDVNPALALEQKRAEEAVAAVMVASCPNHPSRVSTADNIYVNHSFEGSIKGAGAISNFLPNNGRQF
EXPERIMENTAL_PROTOCOL: Displacement of [35S](2S,3S,4S,5R,6S)-6-(4-((2S,3R)-3-((S)-3-(4-fluorophenyl)-3-hydroxypropyl)-1-(4-(3-(methylsulfonamido)prop-1-ynyl)phenyl)-4-oxoazetidin-2-yl)phenoxy)-3,4,5-trihydroxytetrahydro-2H-pyran-2-carboxylic acid from human NCP1L1 expressed in HEK 293
pIC50: −log10 of the molar value.
Decide using pIC50: a value greater than or equal to 5 is satisfied, a smaller one is not satisfied.

Study these solved cases before continuing.
CCc1nn(CC)c(C2CCN(C(=O)CN3CN(c4ccccc4)C4(CCN(C(=O)c5ccc(C(C)(C)C)cc5)CC4)C3=O)CC2)c1CC | satisfied
O=C(CN1CN(c2ccccc2)C2(CCN(C(=O)c3ccc(C4CCCCC4)cc3)CC2)C1=O)NCCCO | not satisfied
COC(=O)CNC(=O)CN1CN(c2ccccc2)C2(CCN(C(=O)c3ccc(C4CCCCC4)cc3)CC2)C1=O | satisfied
CC1(C)CC(OC(=O)CN2CN(c3ccccc3)C3(CCN(C(=O)c4ccc(C5CCCCC5)cc4)CC3)C2=O)CC(C)(C)N1 | satisfied
CS(=O)(=O)NCCNC(=O)CN1CN(c2ccccc2)C2(CCN(C(=O)c3ccc(C4CCCCC4)cc3)CC2)C1=O | satisfied

query: Test whether the compound `CCc1c(C)c(C2CCN(C(=O)CN3CN(c4ccccc4)C4(CCN(C(=O)c5ccc(C(C)(C)C)cc5)CC4)C3=O)CC2)nn1CC` records pIC50 of 5 or higher.
result: satisfied

query: Does the compound CC(C)(C)c1ccc(C(=O)N2CCC3(CC2)C(=O)N(CC(=O)N2CCCCC2CCO)CN3c2ccccc2)cc1 (stereo unspecified) have recorded pIC50 that is 5 or more?
result: satisfied

query: Form field: pIC50 at least 5? Entry: `CCc1nn(CC)c(C2CCN(C(=O)CN3CN(c4ccccc4)C4(CCN(C(=O)c5ccc(C(C)(C)C)cc5)CC4)C3=O)CC2)c1C`
result: satisfied

query: Determine whether measured pIC50 meets or exceeds 5 for `CS(=O)(=O)N1CCN(C(=O)CN2CN(c3ccccc3)C3(CCN(C(=O)c4ccc(C5CCCCC5)cc4)CC3)C2=O)CC1`
result: satisfied

query: Assess whether reported pIC50 for `CC(C)(C)OC(=O)NCCCNC(=O)CN1CN(c2ccccc2)C2(CCN(C(=O)c3ccc(C(C)(C)C)cc3)CC2)C1=O` sits at 5 or higher.
result: satisfied

query: Exam item: decide whether the reported pIC50 for `COC(=O)CCCNC(=O)CN1CN(c2ccccc2)C2(CCN(C(=O)c3ccc(C4CCCCC4)cc3)CC2)C1=O` is at least 5.
result: satisfied

query: Please tell me: is the compound `NCCCNC(=O)CN1CN(c2ccccc2)C2(CCN(C(=O)c3ccc(C4CCCCC4)cc3)CC2)C1=O` at or over 5 in terms of pIC50?
result: satisfied

query: Exam item: decide whether the reported pIC50 for `CC(C)(C)c1ccc(C(=O)N2CCC3(CC2)C(=O)N(CC(=O)NCCCCN)CN3c2ccccc2)cc1` is at least 5.
result: not satisfied

query: I'd appreciate it if you could say whether `CC(C)(C)c1ccc(C(=O)N2CCC3(CC2)C(=O)N(CC(=O)NCCNS(C)(=O)=O)CN3c2ccccc2)cc1` has pIC50 at least equal to 5.
result: not satisfied

The reported measurements were obtained from ChEMBL document CHEMBL1629418.
